Attribution: patent US20250099420A1

Biological target: GPR139 (Homo sapiens, UniProt Q6DWJ6)
Sequence (Q6DWJ6 whole entry): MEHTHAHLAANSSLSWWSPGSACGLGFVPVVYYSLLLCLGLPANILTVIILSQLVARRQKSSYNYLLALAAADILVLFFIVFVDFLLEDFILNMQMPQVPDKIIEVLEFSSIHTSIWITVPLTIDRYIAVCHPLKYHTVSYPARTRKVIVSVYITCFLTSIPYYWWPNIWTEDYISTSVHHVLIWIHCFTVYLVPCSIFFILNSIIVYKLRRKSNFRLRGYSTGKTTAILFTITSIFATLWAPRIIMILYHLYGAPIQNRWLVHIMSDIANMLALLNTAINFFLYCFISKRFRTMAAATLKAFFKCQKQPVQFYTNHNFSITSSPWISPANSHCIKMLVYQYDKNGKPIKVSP
Test: GPR139 Agonist titration / agonist counterscreen assay (calcium detection, HEK-GPR139 cells)
Assay type: cell-based
Design: expressed in transfected cells; host or cells: HEK Aequorin cells, Maxcyte transient transfection
Conditions: GPR139 Agonist Activity; ligand efficiency
reported endpoint: Efficiency Ligand
When you answer, write just the number.

Inquiry: Under GPR139 (Homo sapiens, UniProt Q6DWJ6), report Efficiency Ligand for CCN(CCCNC(=O)CN1CCC(Cc2ccccc2C)C1=O)c1cccc(C)c1 (stereo not shown)
Reply text: 0.31

Inquiry: Under GPR139 (Homo sapiens, UniProt Q6DWJ6), report Efficiency Ligand for COc1ccc(C2(C)NC(=O)N(CC(=O)Nc3cc(C)ccc3C)C2=O)cc1 (stereo not shown)
Reply text: 0.43

Inquiry: Under GPR139 (Homo sapiens, UniProt Q6DWJ6), report Efficiency Ligand for `COc1ccc(CCNC(=O)c2cccc(-c3ccc(OC)nc3)c2)cc1`
Reply text: 0.36

Inquiry: Under GPR139 (Homo sapiens, UniProt Q6DWJ6), report Efficiency Ligand for `COc1ccc(-c2nnn(CC(=O)NCCc3c[nH]c4ccccc34)n2)cc1OC`
Reply text: 0.38

* * *

Biological target: GPR139 (Homo sapiens)
Assay: GPR139 Agonist titration / agonist counterscreen assay (calcium detection, HEK-GPR139 cells)
Assay type: cell-based
Design: expressed in transfected cells; host or cells: HEK Aequorin cells, Maxcyte transient transfection
Conditions: GPR139 Agonist Activity; activity relative to known control
I'd appreciate it if you could supply Averaged Max % Response (±St. Dev.) values for the items below.
Value and unit, in that order.

Inquiry: Under GPR139 (Homo sapiens), report Averaged Max % Response (±St. Dev.) for O=C(CN1CCN(Cc2ccccc2Cl)C1=O)NC1CCCCCCC1 [SR-01000125462]
Reply text: 92.90 ± 12.57%

Inquiry: Under GPR139 (Homo sapiens), report Averaged Max % Response (±St. Dev.) for COc1ccc(NC(=O)Cn2ncc3c2-c2ccccc2OC3)cc1Cl [SR-01000135070]
Reply text: 89.37 ± 8.48%

Inquiry: Under GPR139 (Homo sapiens), report Averaged Max % Response (±St. Dev.) for Cl.Cl.Nc1[nH]ncc1-c1ccc(NC(=O)[C@H](N)Cc2cccc(F)c2)cc1 [SR-00000004378]
Reply text: 72.99 ± 14.39%

Inquiry: Under GPR139 (Homo sapiens), report Averaged Max % Response (±St. Dev.) for O=C(CNC(=O)c1ccc(Br)o1)NC1CCCc2ccccc21 (centres unmarked) [SR-01000064101]
Reply text: 90.33 ± 2.09%

Inquiry: Under GPR139 (Homo sapiens), report Averaged Max % Response (±St. Dev.) for O=C(Cn1nc(Cc2ccncc2)c2ccccc2c1=O)N1CCCc2ccccc21 [SR-01000151917]
Reply text: 110.81 ± 5.15%

Inquiry: Under GPR139 (Homo sapiens), report Averaged Max % Response (±St. Dev.) for CCC1Cc2ccc(C)cc2CC1C(=O)Nc1ccc(-c2cn[nH]c2)cc1OCCN(C)C (centres unmarked) [SR-00000007138]
Reply text: 109.71 ± 13.62%

Inquiry: Under GPR139 (Homo sapiens), report Averaged Max % Response (±St. Dev.) for Cc1ccccc1NC(=O)CSC1=C(C#N)C(c2ccccc2C(F)(F)F)C2=C(CCCC2=O)N1 (centres unmarked) [SR-01000484454]
Reply text: 96.91 ± 19.53%

Inquiry: Under GPR139 (Homo sapiens), report Averaged Max % Response (±St. Dev.) for COCCn1c(C)c(C(=O)NC(C)CCc2ccccc2)c2nc3ccccc3nc21 (centres unmarked) [SR-01000918134]
Reply text: 116.95 ± 4.02%

* * *

Target: GPR139 (Homo sapiens, UniProt Q6DWJ6)
Test: GPR139 Agonist titration / agonist counterscreen assay (calcium detection, HEK-GPR139 cells)
Assay type: cell-based
Design: expressed in transfected cells; host or cells: HEK Aequorin cells, Maxcyte transient transfection
Details: GPR139 Agonist Activity; activity relative to known control
I'd appreciate it if you could supply Averaged Max % Response (±St. Dev.) values for the items below.
Reply with just the number (in %).

Inquiry: Under GPR139 (Homo sapiens, UniProt Q6DWJ6), report Averaged Max % Response (±St. Dev.) for `O=C(Cn1cc2c(n1)CCCCC2)NCCCc1ccccc1`
Reply text: 100.76

Inquiry: Under GPR139 (Homo sapiens, UniProt Q6DWJ6), report Averaged Max % Response (±St. Dev.) for `COc1ccc(CCNC(=O)c2cccc(-c3ccc(OC)nc3)c2)cc1`
Reply text: 108.92

Inquiry: Under GPR139 (Homo sapiens, UniProt Q6DWJ6), report Averaged Max % Response (±St. Dev.) for `COc1ccc2c(CC(=O)NNC(=O)c3cc(-c4ccccc4)no3)coc2c1`
Reply text: 79.45

Inquiry: Under GPR139 (Homo sapiens, UniProt Q6DWJ6), report Averaged Max % Response (±St. Dev.) for `CCCCNC(=O)NNC(=O)CSc1cc(C)c(Br)cc1C`
Reply text: 110.53

Inquiry: Under GPR139 (Homo sapiens, UniProt Q6DWJ6), report Averaged Max % Response (±St. Dev.) for `COc1cccc(C(=O)NNC(=O)COc2ccc(C)cc2Br)c1`
Reply text: 111.46

Inquiry: Under GPR139 (Homo sapiens, UniProt Q6DWJ6), report Averaged Max % Response (±St. Dev.) for `CCCCn1c(C)c(N(CC)C(=O)C(C)(C)Oc2ccc(C)cc2)c(=O)[nH]c1=O`
Reply text: 126.32

Inquiry: Under GPR139 (Homo sapiens, UniProt Q6DWJ6), report Averaged Max % Response (±St. Dev.) for C=C(CC1N=CC2=C1c1ccccc1CC2)NCc1ccc(C)cc1 (stereo not drawn)
Reply text: 111.20

Inquiry: Under GPR139 (Homo sapiens, UniProt Q6DWJ6), report Averaged Max % Response (±St. Dev.) for `CC(C)(C)c1cn2cccc(OCc3ccc(Cl)c(Cl)c3)c2n1`
Reply text: 87.84

Inquiry: Under GPR139 (Homo sapiens, UniProt Q6DWJ6), report Averaged Max % Response (±St. Dev.) for Cc1ccc(CN2CC34C=CC(O3)C(C(=O)NCCC3=CCCCC3)C4C2=O)cc1 (stereo not drawn)
Reply text: 86.57

* * *

Target: GPR139 (Homo sapiens)
Assay: GPR139 Agonist titration / agonist counterscreen assay (calcium detection, HEK-GPR139 cells)
Assay type: cell-based
Set-up: expressed in transfected cells; host or cells: HEK Aequorin cells, Maxcyte transient transfection
Conditions: GPR139 Agonist Activity
# label = yes (1) if Hill Slope >= 0.8 else no (0)

Inquiry: Can `CS(=O)(=O)c1cccc(C(=O)NCCCN2CCc3ccccc32)c1` be said to have Hill Slope at or above 0.8?
Reply text: no (0)

Inquiry: Can `O=C(COc1ccc2ccccc2c1)NNC(=O)c1cccc([N+](=O)[O-])c1` be said to have Hill Slope at or above 0.8?
Reply text: yes (1)

Inquiry: Can CC(Oc1ccccc1)C(=O)NCCn1ccc2ccccc21 (stereo not drawn) be said to have Hill Slope at or above 0.8?
Reply text: yes (1)

Inquiry: Can `N#Cc1ccc(OC(=O)COc2cccc3ccccc23)cc1` be said to have Hill Slope at or above 0.8?
Reply text: yes (1)

Inquiry: Can O=C(O)CC1CCCC1c1ccccc1 (stereo not drawn) be said to have Hill Slope at or above 0.8?
Reply text: yes (1)

Inquiry: Can `COc1ccc2c(c1)C[C@H](C(=O)Nc1ccc(-c3cn[nH]c3)cc1OCC1CNC1)NC2.O=C(O)C(F)(F)F.O=C(O)C(F)(F)F.O=C(O)C(F)(F)F` be said to have Hill Slope at or above 0.8?
Reply text: yes (1)

Inquiry: Can `COc1cc(OC)cc(C(=O)NNC(=O)CCc2ccccc2)c1` be said to have Hill Slope at or above 0.8?
Reply text: yes (1)

Inquiry: Can CC1=NNC(=O)C1CC(=O)N/N=C/c1c(Cl)cccc1Cl (stereo not drawn) be said to have Hill Slope at or above 0.8?
Reply text: no (0)

Inquiry: Can `Cc1cc(NC(=O)Cn2ncc3c2-c2ccccc2OC3)no1` be said to have Hill Slope at or above 0.8?
Reply text: no (0)

Inquiry: Can `CCN(Cc1ccccc1)C(=O)Cn1cnc2sc(O)c(C)c2c1=O` be said to have Hill Slope at or above 0.8?
Reply text: yes (1)

Inquiry: Can COc1ccc(CCN2CC3=C(C2=O)C(c2ccc(F)c(F)c2)NC(=O)N3)cc1 (stereo not drawn) be said to have Hill Slope at or above 0.8?
Reply text: no (0)

Inquiry: Can `Cc1cc(C)c2c(cnn2CC(=O)N2CCc3ccccc3C2)c1` be said to have Hill Slope at or above 0.8?
Reply text: yes (1)

Inquiry: Can `O=C(Cn1ccc2ccccc21)NC1CCN(Cc2ccccc2)CC1` be said to have Hill Slope at or above 0.8?
Reply text: no (0)

Inquiry: Can Cn1c(CCc2ccc(F)cc2F)nnc1C1=C(O)N=C2CC=CC21 (stereo not drawn) be said to have Hill Slope at or above 0.8?
Reply text: no (0)

Inquiry: Can `CCOC(=O)c1cccc(NC(=O)Cc2cccc3ccccc23)c1` be said to have Hill Slope at or above 0.8?
Reply text: no (0)

Inquiry: Can CC12C=CC3(CN(Cc4ccccc4)C(=O)C3C1C(=O)NCC1COc3ccccc3O1)O2 (stereo not drawn) be said to have Hill Slope at or above 0.8?
Reply text: no (0)
